target: Ubiquitin carboxyl-terminal hydrolase 7 (Homo sapiens); experiment: Inhibition of human USP7 using Ub-EKL as substrate by SDS-PAGE assay
Sequence (Q93009 whole entry): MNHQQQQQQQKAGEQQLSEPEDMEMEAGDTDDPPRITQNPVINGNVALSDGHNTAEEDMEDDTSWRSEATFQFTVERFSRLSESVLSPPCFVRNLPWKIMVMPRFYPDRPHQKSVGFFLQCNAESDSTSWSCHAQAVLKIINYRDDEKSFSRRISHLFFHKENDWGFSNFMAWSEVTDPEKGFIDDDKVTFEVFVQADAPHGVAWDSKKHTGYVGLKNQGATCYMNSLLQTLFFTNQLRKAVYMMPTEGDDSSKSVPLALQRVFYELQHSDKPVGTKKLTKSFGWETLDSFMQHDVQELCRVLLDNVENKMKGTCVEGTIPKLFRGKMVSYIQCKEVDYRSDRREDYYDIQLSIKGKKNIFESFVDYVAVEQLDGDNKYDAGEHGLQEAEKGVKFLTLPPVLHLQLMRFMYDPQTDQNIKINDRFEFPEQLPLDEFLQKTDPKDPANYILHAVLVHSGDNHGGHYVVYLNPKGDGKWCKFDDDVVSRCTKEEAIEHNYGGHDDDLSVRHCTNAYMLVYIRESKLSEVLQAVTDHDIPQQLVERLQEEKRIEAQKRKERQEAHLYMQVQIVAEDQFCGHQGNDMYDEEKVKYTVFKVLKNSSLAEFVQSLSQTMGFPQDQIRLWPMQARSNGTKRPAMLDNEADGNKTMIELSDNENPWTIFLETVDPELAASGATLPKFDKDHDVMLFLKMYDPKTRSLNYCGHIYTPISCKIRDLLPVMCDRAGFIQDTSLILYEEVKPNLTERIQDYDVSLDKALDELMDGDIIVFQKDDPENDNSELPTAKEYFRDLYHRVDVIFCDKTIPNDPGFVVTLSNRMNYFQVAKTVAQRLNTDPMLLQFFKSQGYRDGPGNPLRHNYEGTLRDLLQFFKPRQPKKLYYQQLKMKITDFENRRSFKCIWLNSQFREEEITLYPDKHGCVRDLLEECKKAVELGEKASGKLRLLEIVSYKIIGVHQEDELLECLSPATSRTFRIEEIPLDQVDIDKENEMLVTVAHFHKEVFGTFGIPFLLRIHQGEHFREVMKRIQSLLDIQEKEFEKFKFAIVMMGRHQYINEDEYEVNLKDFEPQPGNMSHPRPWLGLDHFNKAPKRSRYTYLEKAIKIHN
pEC50: −log10 of the molar value.
endpoint name: pEC50

compound	test target	pEC50
O=C(NC1CCS(=O)(=O)CC1)c1cc([N+](=O)[O-])c(Sc2c(Cl)cncc2Cl)s1	Ubiquitin carboxyl-terminal hydrolase 7 (Homo sapiens)	5.68

[1] CS(=O)(=O)c1ccccc1NC(=O)c1cc([N+](=O)[O-])c(Sc2c(Cl)cncc2Cl)s1
[2] CN(C)CCOc1ccc(NC(=O)c2cc([N+](=O)[O-])c(Sc3c(Cl)cncc3Cl)s2)cc1
Consider 1 and 2 . Which of these has its pEC50 at a higher number? Your answer should be the label of the entry you select.
2

[P] CN(C)CCNC1CS(=O)(=O)c2cc(NC(=O)c3cc([N+](=O)[O-])c(Sc4c(Cl)cncc4Cl)s3)ccc21 (stereo not given)
[Q] CCS(=O)(=O)c1cccc(NC(=O)c2cc([N+](=O)[O-])c(Sc3c(Cl)cncc3Cl)s2)c1
Consider P and Q . Which of these has its pEC50 at a higher number? Your answer should be the label of the entry you select.
P
(P: 6.66, Q: 6.38)

====

biological target: Ubiquitin carboxyl-terminal hydrolase 7 (Homo sapiens); test: Inhibition of human USP7 using human N-terminal GST-tagged UBA52 as substrate preincubated for 10 mins followed by substrate addition measured after 45 mins by coomassie brilliant blue staining-based SDS-PAGE analysis
pIC50: −log10 of the molar value.
endpoint name: pIC50

Consider the following illustrative entries.
compound	pIC50
CC1(C)[C@H](O)CC[C@]2(C)[C@H]3C(=O)C=C4[C@@H]5C[C@@](C)(C(=O)O)CC[C@]5(C)CC[C@]4(C)[C@@]3(C)CC[C@@H]12	< 4.30
C=C(C)[C@@H]1CC[C@]2(C(=O)O)CC[C@]3(C)[C@H](CC[C@@H]4[C@@]5(C)CC[C@H](O)C(C)(C)[C@@H]5CC[C@]43C)[C@H]2C1	4.48

Per the record, COC(=O)[C@]12CC[C@@H](C)[C@H](C)[C@H]1C1=CC[C@@H]3[C@@]4(C)CC[C@H](O)C(C)(C)[C@@H]4CC[C@@]3(C)[C@]1(C)CC2 [METHYL URSOLATE] has pIC50 of < 4.30

Per the record, C[C@H]1[C@H](C)CC[C@]2(C(=O)O)CC[C@]3(C)C(=CC[C@@H]4[C@@]5(C)C[C@@H](O)[C@H](O)[C@@](C)(CO)[C@@H]5CC[C@]43C)[C@H]12 [ASIATIC ACID] has pIC50 of < 4.30

====

biological target: UniProt:P40818; assay: Inhibition of human his tagged USP8 by Westernblot analysis
Sequence (P40818 whole entry): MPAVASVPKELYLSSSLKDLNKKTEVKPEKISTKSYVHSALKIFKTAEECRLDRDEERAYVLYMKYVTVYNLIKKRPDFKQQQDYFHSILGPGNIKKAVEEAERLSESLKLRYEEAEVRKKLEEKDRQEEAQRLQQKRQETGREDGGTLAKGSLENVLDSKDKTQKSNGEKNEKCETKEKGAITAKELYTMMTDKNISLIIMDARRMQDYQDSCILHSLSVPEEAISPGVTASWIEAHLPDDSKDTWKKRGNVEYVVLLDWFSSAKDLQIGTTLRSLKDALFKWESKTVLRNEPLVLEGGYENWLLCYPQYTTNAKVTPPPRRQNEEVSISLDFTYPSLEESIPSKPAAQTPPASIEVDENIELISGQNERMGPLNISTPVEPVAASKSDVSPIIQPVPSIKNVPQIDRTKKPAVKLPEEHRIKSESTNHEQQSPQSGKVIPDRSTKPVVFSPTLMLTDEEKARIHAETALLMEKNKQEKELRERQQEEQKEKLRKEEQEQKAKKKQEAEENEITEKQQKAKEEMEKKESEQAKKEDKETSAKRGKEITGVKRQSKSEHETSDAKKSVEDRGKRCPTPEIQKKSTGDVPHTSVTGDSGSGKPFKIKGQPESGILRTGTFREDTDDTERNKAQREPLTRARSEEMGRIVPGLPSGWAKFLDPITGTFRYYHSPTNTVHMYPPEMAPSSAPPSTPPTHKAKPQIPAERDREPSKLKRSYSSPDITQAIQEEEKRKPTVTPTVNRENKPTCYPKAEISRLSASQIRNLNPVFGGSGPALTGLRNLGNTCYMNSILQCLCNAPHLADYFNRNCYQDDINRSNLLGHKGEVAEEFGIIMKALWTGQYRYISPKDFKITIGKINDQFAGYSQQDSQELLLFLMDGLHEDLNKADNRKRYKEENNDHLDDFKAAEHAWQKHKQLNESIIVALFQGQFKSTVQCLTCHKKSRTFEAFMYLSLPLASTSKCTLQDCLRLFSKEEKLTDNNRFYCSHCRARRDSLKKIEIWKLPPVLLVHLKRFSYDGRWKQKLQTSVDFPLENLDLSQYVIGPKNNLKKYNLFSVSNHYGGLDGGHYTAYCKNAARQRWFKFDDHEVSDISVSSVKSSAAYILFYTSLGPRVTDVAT
pIC50: −log10 of the molar value.
endpoint name: pIC50

Per the record, O=C(NCCc1ccc(Cl)cc1)c1ccc2nc3c(c(Cl)c2c1)CCCC3 has pIC50 of < 3.70

====

Target: UniProt:Q96K76
Sequence (Q96K76 whole entry): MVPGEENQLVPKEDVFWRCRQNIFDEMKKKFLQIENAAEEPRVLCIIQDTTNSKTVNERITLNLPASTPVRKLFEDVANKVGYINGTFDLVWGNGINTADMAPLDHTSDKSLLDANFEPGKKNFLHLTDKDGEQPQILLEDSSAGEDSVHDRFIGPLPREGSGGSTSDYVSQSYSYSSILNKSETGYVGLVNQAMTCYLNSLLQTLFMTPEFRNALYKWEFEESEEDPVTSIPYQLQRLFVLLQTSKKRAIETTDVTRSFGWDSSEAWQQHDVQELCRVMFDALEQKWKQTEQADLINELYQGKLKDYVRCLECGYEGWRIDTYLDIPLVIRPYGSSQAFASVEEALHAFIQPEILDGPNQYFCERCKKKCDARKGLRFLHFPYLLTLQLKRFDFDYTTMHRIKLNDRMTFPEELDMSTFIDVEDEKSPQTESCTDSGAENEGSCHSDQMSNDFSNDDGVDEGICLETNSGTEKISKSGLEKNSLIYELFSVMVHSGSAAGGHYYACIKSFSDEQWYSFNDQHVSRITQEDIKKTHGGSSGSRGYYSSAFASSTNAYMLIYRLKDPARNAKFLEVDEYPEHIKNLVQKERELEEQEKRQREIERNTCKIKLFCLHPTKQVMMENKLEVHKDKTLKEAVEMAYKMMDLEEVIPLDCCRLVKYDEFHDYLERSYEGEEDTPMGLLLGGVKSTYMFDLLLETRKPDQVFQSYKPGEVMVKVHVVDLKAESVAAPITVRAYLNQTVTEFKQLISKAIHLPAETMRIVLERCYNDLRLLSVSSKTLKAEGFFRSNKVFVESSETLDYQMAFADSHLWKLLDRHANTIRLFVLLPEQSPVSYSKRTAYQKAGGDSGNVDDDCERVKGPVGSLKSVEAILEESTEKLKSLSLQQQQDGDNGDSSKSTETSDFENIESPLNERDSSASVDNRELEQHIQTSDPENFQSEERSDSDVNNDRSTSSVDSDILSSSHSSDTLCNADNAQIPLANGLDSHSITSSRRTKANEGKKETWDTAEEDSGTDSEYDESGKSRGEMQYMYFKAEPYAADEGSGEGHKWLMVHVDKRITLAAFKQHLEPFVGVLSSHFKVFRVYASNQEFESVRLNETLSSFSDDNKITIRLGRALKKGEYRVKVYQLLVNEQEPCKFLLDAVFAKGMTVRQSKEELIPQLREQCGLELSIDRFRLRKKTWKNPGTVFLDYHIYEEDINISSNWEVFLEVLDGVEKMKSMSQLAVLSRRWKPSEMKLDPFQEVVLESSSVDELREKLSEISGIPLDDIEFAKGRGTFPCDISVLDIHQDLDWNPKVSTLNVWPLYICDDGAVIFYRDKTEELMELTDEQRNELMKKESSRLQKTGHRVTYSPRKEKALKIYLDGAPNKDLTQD
Experiment: Inhibition of human USP47 using Ub-EKL as substrate by SDS-PAGE assay
pEC50: −log10 of the molar value.
endpoint name: pEC50

compound	pEC50
CC1CS(=N)(=O)c2cc(NC(=O)c3cc([N+](=O)[O-])c(Sc4c(Cl)cncc4Cl)s3)ccc21 (configuration not stated)	5.96
O=C(NC1CCS(=O)(=O)c2ccccc21)c1cc([N+](=O)[O-])c(Sc2c(Cl)cncc2Cl)s1 (configuration not stated)	5.80
CCS(=O)(=O)c1cccc(NC(=O)c2cc([N+](=O)[O-])c(Sc3c(Cl)cncc3Cl)s2)c1	6.03

[I] CC1CS(=O)(=O)c2cc(NC(=O)c3cc([N+](=O)[O-])c(Sc4c(Cl)cncc4Cl)s3)ccc21 (configuration not stated)
[II] O=C(Nc1ccc2c(c1)S(=O)(=O)C=C2)c1cc([N+](=O)[O-])c(Sc2c(Cl)cncc2Cl)s1
[III] N#Cc1cc(C(=O)Nc2ccc3c(c2)S(=O)(=O)C=C3)sc1Sc1c(Cl)cncc1Cl
[IV] CS(=O)(=O)c1ccccc1NC(=O)c1cc([N+](=O)[O-])c(Sc2c(Cl)cncc2Cl)s1
[V] CS(=N)(=O)c1cccc(NC(=O)c2cc([N+](=O)[O-])c(Sc3c(Cl)cncc3Cl)s2)c1 (configuration not stated)
List the 5 entries from lowest pEC50 to highest pEC50 value. The reply should contain the labels ordered as requested.
IV, III, V, II, I
(IV: 5.03, III: 5.29, V: 5.66, II: 5.88, I: 6.44)

[a] CC1=CS(=O)(=O)c2cc(NC(=O)c3cc([N+](=O)[O-])c(Sc4c(Cl)cncc4Cl)s3)ccc21
[b] COCCNC1CS(=O)(=O)c2cc(NC(=O)c3cc([N+](=O)[O-])c(Sc4c(Cl)cncc4Cl)s3)ccc21 (configuration not stated)
Consider a and b . Which of these has its pEC50 at a higher number? Your answer should be the label of the entry you select.
a

[P] CN(C)CCOc1ccc(NC(=O)c2cc([N+](=O)[O-])c(Sc3c(Cl)cncc3Cl)s2)cc1
[Q] O=C(Nc1cccc(S(=O)(=O)C2CC2)c1)c1cc([N+](=O)[O-])c(Sc2c(Cl)cncc2Cl)s1
Consider P and Q . Which of these has its pEC50 at a higher number? Your answer should be the label of the entry you select.
P
(P: 6.35, Q: 5.80)

[A] O=C(NC1CCS(=O)(=O)C2COCCC12)c1cc([N+](=O)[O-])c(Sc2c(Cl)cncc2Cl)s1 (configuration not stated)
[B] CS(=O)(=O)Nc1cccc(NC(=O)c2cc([N+](=O)[O-])c(Sc3c(Cl)cncc3Cl)s2)c1
Given the listed items, does A or B have the lesser reported pEC50? Your answer should be the label of the entry you select.
A

====

molecular target: Ubiquitin carboxyl-terminal hydrolase 2 (Homo sapiens); assay: Inhibition of human USP2 using Di-Ub IQF as substrate incubated for 15 mins by K63-2 assay
Sequence (O75604 whole entry): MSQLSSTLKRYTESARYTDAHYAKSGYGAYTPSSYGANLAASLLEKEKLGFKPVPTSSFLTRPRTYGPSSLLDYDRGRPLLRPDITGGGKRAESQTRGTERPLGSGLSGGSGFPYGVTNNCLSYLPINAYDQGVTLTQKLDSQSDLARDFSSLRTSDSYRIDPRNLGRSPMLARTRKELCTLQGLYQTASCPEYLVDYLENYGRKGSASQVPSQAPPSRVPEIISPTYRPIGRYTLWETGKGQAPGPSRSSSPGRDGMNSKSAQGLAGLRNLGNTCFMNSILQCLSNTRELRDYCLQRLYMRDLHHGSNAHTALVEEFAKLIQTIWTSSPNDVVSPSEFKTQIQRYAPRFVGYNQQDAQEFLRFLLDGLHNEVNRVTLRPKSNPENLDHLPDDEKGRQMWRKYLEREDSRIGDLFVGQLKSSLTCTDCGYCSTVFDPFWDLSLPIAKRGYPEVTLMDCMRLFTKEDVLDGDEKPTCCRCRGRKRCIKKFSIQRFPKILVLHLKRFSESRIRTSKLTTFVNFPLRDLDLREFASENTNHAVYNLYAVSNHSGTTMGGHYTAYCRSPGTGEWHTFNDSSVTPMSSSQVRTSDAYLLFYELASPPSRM
endpoint name: pIC50
Remember, pIC50 is on a log scale: it is -log10 of the molar concentration.

Per the record, Cc1ccc(S(=O)(=O)Nc2cc(C(F)(F)F)ccc2C(=O)Nc2nc(-c3ccccc3)cs2)cc1 has pIC50 of 5.96
